All figures here come from patent US20070049593A1.

Biological target: HCV polymerase (Hepatitis C virus genotype 1b)
Construct: a region encoding NS5B (J Virol 1991 March, 65(3), 1105-13, 544 amino acids after deletion of 47 amino acids on the C-terminal); 6xHis (C); made in house; host or cells: Escherichia coli
Experiment: biochemical
Design: species or system HCV BK strain
pIC50: −log10 of the molar value. Structures can show the parent of a compound that is named as a salt.

| COMPOUND | pIC50 |
| --- | --- |
| O=C(O)c1ccc2c(C3CCCCC3)c3n(c2c1)CCN(CCCC(=O)N1CCOCC1)c1ccccc1-3 [Example 1-61, monohydrochloride] | > 7.00 |
| CCN1CCCN(CCN2CCn3c(c(C4CCCCC4)c4ccc(C(=O)O)cc43)-c3ccccc32)CC1 [Example 1-286, trihydrochloride] | > 7.00 |
| COc1ccc2c(c1)OCCn1c-2c(C2CCCCC2)c2ccc(C(=O)NC(C)(C)c3ncc(-c4ccc(/C=C/C(=O)O)cc4)[nH]3)cc21 | > 7.00 |

----------
Target: HCV polymerase (Hepatitis C virus genotype 1b)
Construct: a region encoding NS5B (J Virol 1991 March, 65(3), 1105-13, 544 amino acids after deletion of 47 amino acids on the C-terminal); 6xHis (C); made in house; host or cells: Escherichia coli
Experiment: biochemical
Design: species or system HCV BK strain
pIC50: −log10 of the molar value. Structures can show the parent of a compound that is named as a salt.

| COMPOUND | pIC50 |
| --- | --- |
| CC(C)(C)OC(=O)N[C@H](COc1ccc2c(c1)OCCn1c-2c(C2CCCCC2)c2ccc(C(=O)O)cc21)Cc1ccccc1 [Example 2-41] | > 7.00 |
| CS(=O)(=O)N1CCCC(Oc2ccc3c(c2)OCCn2c-3c(C3CCCCC3)c3ccc(C(=O)O)cc32)C1 (stereo not shown) [Example 2-44] | > 7.00 |
| Cc1nc(C(C)(C)NC(=O)c2ccc3c(C4CCCCC4)c4n(c3c2)CCOc2ccccc2-4)n(C)c1C [Example 2-259] | > 7.00 |
| O=C(O)c1ccc2c(C3CCCCC3)c3n(c2c1)CCN(CCc1ccccc1)c1ccccc1-3 [Example 1-41, monohydrochloride] | > 7.00 |
| Cc1ccc2c(c1)N(CCN1CCC[C@@H](CC(=O)N(C)C)C1)CCn1c-2c(C2CCCCC2)c2ccc(C(=O)O)cc21 [Example 1-527, dihydrochloride] | > 7.00 |
| COc1ccc2c(c1)OCCn1c-2c(C2CCCCC2)c2ccc(C(=O)N[C@@H](Cc3ccc(O)cc3)C(=O)NCCO)cc21 [Example 2-387] | > 7.00 |
| CC1CCN(C(=O)CN2CCn3c(c(C4CCCCC4)c4ccc(C(=O)O)cc43)-c3ccccc32)CC1 [Example 1-72, monohydrochloride] | > 7.00 |

----------
Target: HCV polymerase (Hepatitis C virus genotype 1b, UniProt P26663)
Construct: a region encoding NS5B (J Virol 1991 March, 65(3), 1105-13, 544 amino acids after deletion of 47 amino acids on the C-terminal); 6xHis (C); made in house; host or cells: Escherichia coli
Sequence (P26663 2420-2963): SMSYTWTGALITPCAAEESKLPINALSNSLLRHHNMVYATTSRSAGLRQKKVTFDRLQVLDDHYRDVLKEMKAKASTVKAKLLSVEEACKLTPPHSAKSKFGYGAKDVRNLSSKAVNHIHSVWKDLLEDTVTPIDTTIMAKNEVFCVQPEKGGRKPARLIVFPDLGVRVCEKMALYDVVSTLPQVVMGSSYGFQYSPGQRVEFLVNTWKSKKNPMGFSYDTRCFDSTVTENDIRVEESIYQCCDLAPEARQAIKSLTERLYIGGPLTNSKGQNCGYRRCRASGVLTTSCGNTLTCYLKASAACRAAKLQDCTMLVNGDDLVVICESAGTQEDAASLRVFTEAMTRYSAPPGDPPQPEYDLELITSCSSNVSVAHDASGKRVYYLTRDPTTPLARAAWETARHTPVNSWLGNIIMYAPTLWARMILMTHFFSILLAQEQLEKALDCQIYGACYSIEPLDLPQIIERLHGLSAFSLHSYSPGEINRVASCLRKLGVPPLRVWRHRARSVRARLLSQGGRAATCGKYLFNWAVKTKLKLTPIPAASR
Test: biochemical
Parameters: species or system HCV BK strain
Structures can show the parent of a compound that is named as a salt.

| COMPOUND | TARGET_OR_TEST_SYSTEM | IC50 |
| --- | --- | --- |
| Cc1ccc2c(c1)N(CCN1CCC[C@@H](CCN(C)C(=O)OC(C)(C)C)C1)CCn1c-2c(C2CCCCC2)c2ccc(C(=O)O)cc21 [Example 1-557, monohydrochloride] | HCV polymerase (Hepatitis C virus genotype 1b, UniProt P26663) | < 100 nM |
| CCCS(=O)(=O)NC(=O)c1ccc2c(C3CCCCC3)c3n(c2c1)CCN(CC(=O)N1CCN(CC)CC1)c1ccccc1-3 [Example 1-129, dihydrochloride] | HCV polymerase (Hepatitis C virus genotype 1b, UniProt P26663) | < 100 nM |
| CC[C@H]1CCCN(CCN2CCn3c(c(C4CCCCC4)c4ccc(C(=O)O)cc43)-c3ccc(Cl)cc32)C1 [Example 1-335, dihydrochloride] | HCV polymerase (Hepatitis C virus genotype 1b, UniProt P26663) | < 100 nM |
| Cc1nc(C(C)(C)NC(=O)c2ccc3c(C4CCCCC4)c4n(c3c2)CCOc2ccccc2-4)n(CCO)c1C [Example 2-292] | HCV polymerase (Hepatitis C virus genotype 1b, UniProt P26663) | 100 to 1000 nM |
| Cn1c(CNC(=O)c2ccc3c(C4CCCCC4)c4n(c3c2)CCOc2ccccc2-4)nc2ccccc21 [Example 2-249] | HCV polymerase (Hepatitis C virus genotype 1b, UniProt P26663) | < 100 nM |
| O=C(O)c1ccc2c(C3CCCCC3)c3n(c2c1)CCN(CC(=O)N1CC=CCC1)c1ccccc1-3 [Example 1-136] | HCV polymerase (Hepatitis C virus genotype 1b, UniProt P26663) | < 100 nM |
